Molecular target: hNTS2 (Homo sapiens)
Sequence (O95665 whole entry): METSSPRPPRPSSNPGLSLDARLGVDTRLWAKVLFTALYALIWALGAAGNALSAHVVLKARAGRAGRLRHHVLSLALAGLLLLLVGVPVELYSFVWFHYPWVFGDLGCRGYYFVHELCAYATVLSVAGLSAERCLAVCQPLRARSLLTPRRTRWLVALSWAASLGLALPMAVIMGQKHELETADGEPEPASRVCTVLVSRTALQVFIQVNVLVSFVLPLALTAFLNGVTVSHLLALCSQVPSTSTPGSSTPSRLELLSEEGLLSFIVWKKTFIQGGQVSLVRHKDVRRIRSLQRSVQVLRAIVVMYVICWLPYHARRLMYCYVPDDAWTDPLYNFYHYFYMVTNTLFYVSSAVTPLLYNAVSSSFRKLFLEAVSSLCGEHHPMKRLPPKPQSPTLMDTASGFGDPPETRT
Experiment: Competitive radioligand binding assay, 125I-[Tyr3]-NT displacement, 1321N1 cell membranes
Conditions: mean ± SEM, at least three experiments; Cheng-Prusoff from IC50; read-out: Binding, Ki hNTS2
Protocol: All media and additives are from Wisent (St-Bruno, QC). […] After 1 h of incubation at room temperature, the binding reaction mixture was transferred in polyethylenimine-coated 96-well-filter plates (Millipore, Billerica, MA). Reaction was terminated by filtration, and plates were washed three times with 200 μl of ice-cold binding buffer. […]

substance | Ki
H-KKPKIL-OH [Compound 9, H-Lys-Lys-Pro-Lys-Ile-Leu-OH] | 310 nM
